Here is a set of molecules with reported pIC50 for the protein given by its sequence, compiled from the literature.
Protein target, amino acids: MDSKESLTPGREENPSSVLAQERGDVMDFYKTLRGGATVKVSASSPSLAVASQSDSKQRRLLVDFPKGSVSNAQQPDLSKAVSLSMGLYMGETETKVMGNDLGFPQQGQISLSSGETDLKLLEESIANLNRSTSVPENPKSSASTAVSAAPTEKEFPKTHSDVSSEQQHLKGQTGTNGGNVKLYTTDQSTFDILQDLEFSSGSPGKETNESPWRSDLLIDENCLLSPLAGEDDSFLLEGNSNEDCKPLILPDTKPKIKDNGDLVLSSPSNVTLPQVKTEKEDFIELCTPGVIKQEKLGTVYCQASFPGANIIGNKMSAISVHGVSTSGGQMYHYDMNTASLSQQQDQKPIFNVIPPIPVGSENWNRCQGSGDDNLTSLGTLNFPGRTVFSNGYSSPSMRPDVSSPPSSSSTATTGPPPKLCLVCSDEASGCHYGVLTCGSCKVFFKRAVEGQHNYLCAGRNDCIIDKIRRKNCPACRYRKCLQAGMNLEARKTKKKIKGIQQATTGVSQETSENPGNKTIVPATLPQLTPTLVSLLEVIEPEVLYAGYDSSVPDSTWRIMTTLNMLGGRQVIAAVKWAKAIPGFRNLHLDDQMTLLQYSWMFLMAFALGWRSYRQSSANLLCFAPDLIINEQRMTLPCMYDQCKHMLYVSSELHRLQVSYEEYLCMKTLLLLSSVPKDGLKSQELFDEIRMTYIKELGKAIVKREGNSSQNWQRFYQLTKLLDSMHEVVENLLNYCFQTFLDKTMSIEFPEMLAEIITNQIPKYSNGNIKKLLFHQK
pIC50: −log10 of the molar value.
measured-attribute: pIC50

[
  {
    "molecule": "COc1ccc(F)cc1C(C)(C)CC(O)(Cc1cc(Cl)ccc1Cl)C(F)(F)F (stereo not given)",
    "measured-attribute": "pIC50",
    "recorded-value": 7.35
  }
]

(P) CC1=C(C#N)[C@@H](c2ccc(F)cc2Cl)C(C(=O)OC(C)(C)C)=C(C)N1
(Q) CCN(CC(O)(CNc1cc(C)cc2c1cnn2-c1ccccc1)C(F)(F)F)C(=O)c1ccccc1 (racemic)
(R) CC(Cc1c[nH]c2ccccc12)NS(=O)(=O)c1ccccc1Cl (stereo not given)
Sort (3 molecules) by pIC50: min first. The response must list the labels following the requested ordering.
R, P, Q

----------
Consider the following IC50 data for Glucocorticoid receptor (Homo sapiens, UniProt P04150), collected from several reports.
measured-attribute: IC50 (nM)

Study these solved cases before continuing.
[
  {
    "compound": "OC(c1cccc(Cl)c1)(c1ccc2c(cnn2-c2ccc(F)cc2)c1)C(F)(F)F (stereo unspecified)",
    "IC50 / nM": 72
  },
  {
    "compound": "COc1ccc(F)cc1C(C)(C)CC(O)(Cc1ccc(Cl)cc1)C(F)(F)F (stereo unspecified)",
    "IC50 / nM": 340
  },
  {
    "compound": "O=C1COc2ccc(C3=Nn4cnnc4SC3c3ccccc3)cc2N1 (stereo unspecified)",
    "IC50 / nM": 5600
  },
  {
    "compound": "COc1ccc(F)cc1C(C)(C)CC(O)(Cc1ccccc1Br)C(F)(F)F (stereo unspecified)",
    "IC50 / nM": 205
  }
]

(A) Cc1ccccc1C(O)(c1ccc2c(cnn2-c2ccc(F)cc2)c1)C(F)(F)F (stereo unspecified)
(B) Fc1ccc(-c2c3cccc(C(F)(F)F)c3nn2Cc2ccc(F)cc2Cl)cc1
Look at A and B . Which one has the lower recorded IC50 number? The response must carry the label of the picked entry.
A
(A: 282 nM, B: 1000 nM)

----------
What follows is literature data on IC50 for Glucocorticoid receptor (Homo sapiens).
measured-on: Glucocorticoid receptor (Homo sapiens)
Sequence (P04150 whole entry): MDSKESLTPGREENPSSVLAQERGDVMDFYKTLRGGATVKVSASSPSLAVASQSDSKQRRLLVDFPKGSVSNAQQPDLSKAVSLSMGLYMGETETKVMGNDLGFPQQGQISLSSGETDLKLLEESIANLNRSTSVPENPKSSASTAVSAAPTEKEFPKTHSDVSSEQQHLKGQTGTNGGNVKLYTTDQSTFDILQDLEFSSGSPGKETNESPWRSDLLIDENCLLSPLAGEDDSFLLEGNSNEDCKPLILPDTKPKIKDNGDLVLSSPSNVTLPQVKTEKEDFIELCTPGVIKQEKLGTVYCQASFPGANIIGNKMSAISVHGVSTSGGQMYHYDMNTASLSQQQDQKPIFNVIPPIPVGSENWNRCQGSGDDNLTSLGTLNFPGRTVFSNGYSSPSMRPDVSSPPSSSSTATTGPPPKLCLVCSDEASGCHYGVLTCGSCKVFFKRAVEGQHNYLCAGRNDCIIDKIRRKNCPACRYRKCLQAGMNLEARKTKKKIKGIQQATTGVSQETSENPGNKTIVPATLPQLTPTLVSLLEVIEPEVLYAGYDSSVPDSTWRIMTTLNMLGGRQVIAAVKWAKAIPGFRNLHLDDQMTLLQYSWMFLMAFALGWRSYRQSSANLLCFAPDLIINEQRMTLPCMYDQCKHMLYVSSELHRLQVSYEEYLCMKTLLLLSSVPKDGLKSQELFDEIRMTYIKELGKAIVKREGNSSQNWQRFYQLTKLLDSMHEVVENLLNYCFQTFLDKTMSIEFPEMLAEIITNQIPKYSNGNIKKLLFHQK

// below: answered compounds
[
  {
    "compound": "Cc1cc(N2N=C3c4ccc(C(=O)O)cc4CO[C@@H]3[C@@H]2C2CCCC2)ccc1C#N",
    "measured-on": "Glucocorticoid receptor (Homo sapiens)",
    "IC50": "> 10 µM"
  },
  {
    "compound": "O=c1[nH]cc(CSc2ccc(C(F)(F)F)cc2)[nH]c1=O",
    "measured-on": "Glucocorticoid receptor (Homo sapiens)",
    "IC50": "> 10 µM"
  },
  {
    "compound": "CC(Cc1c[nH]c2ccccc12)NS(=O)(=O)c1cccc(C#N)c1 (stereo not given)",
    "measured-on": "Glucocorticoid receptor (Homo sapiens)",
    "IC50": "> 10 µM"
  },
  {
    "compound": "CC(Cc1cn(C)c2ccccc12)NS(=O)(=O)c1c(Cl)cc(Cl)cc1Cl (stereo not given)",
    "measured-on": "Glucocorticoid receptor (Homo sapiens)",
    "IC50": "> 2 µM"
  }
]

Turning to the following compound.
// IC50 lookup, key: CC(Cc1c[nH]c2ccccc12)NS(=O)(=O)c1ccccc1[N+](=O)[O-] (stereo not given)
> 10 µM
